B1: Gamma-crystallin C, residues 91 to 170; numbered along this chain, P07315 (parent)
chain: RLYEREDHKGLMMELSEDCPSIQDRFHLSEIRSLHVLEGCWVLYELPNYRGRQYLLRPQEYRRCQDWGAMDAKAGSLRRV

variants of: B1; experiment: abundance fitness (aPCA) (normalised: wild type 0, dead -1); higher = more abundant; growth selection in yeast, the domain comes from the species named; conditions: Homo sapiens
Reported abundance fitness values for the following variants.
METRIC: abundance fitness

variant_annotation=Y44A measured_result=-0.671
variant_annotation=P58K measured_result=-0.15
variant_annotation=I31R measured_result=-0.776
variant_annotation=P58V measured_result=-0.378
variant_annotation=Q65M measured_result=-0.283
variant_annotation=S16I measured_result=-0.102
variant_annotation=Y54G measured_result=-0.968
variant_annotation=G51S measured_result=-0.962
variant_annotation=L37V measured_result=-0.033
variant_annotation=L34Y measured_result=-0.572
variant_annotation=D71M measured_result=-0.443
variant_annotation=G10L measured_result=-1.06
variant_annotation=S76H measured_result=-0.735
variant_annotation=Y49G measured_result=-1.11
variant_annotation=E45A measured_result=-0.191
variant_annotation=R1W measured_result=-0.404
variant_annotation=Q53S measured_result=0.074
variant_annotation=F26V measured_result=-0.461
variant_annotation=L2V measured_result=-0.714
variant_annotation=K9W measured_result=-0.909
variant_annotation=E30L measured_result=-0.368
variant_annotation=E17I measured_result=-0.533
variant_annotation=Y54Q measured_result=-0.783
variant_annotation=Y49K measured_result=-0.918
variant_annotation=W67G measured_result=-1
variant_annotation=R57H measured_result=-0.034
variant_annotation=H35A measured_result=-0.053
variant_annotation=C19T measured_result=-0.535
variant_annotation=V36M measured_result=-0.742
